Cited source for all entries: patent US20110287023A1

- subject_of_test: recombinant HMG1 produced in E. coli as a calmodulin binding protein (CBP) fusion (human)
- Sequence (P09429 whole entry, the tested form may be a part): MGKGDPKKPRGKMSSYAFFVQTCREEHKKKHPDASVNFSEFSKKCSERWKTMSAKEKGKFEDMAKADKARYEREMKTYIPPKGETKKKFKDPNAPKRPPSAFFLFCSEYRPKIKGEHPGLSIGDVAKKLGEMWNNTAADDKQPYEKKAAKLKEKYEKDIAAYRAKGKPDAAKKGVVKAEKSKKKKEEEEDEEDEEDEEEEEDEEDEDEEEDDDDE
- protocol_summary: cell-based or functional assay
For each of the binders below, state its IC50 IL-6.
Only the number, expressed in nM, is required.

Dear colleague, please send me the reported IC50 IL-6 for human anti-HMG1 antibody E11 (antibody, IgG1, V domains shown, full length IgG1 made from a human Fab phage clone) VH: EVQLLESGGGLVQPGGSLRLSCAASGFTFSRYQMNWVRQAPGKGLEWVSSISPSGGHTHYADSVKGRFTISRDNSKNTLYLQMNSLRAEDTAVYYCAKDGRQGKISTVDHWGQGTLVTVSS VL: DIQMTQSPGTLSLSPGERATLSCRASQSVRSNFLAWYQQKPGQAPRLLIYGASRRASGIPDRFSGSGFGADFTLSISRLEPEDFAVYYCQQYGSSPNTFGQGSRVEIK when you can.
1.22

Dear colleague, please send me the reported IC50 IL-6 for human anti-HMG1 antibody G16 (antibody, IgG1, V domains shown, full length IgG1 made from a human Fab phage clone) VH: EVQLLESGGGLVQPGGSLRLSCAASGFTFSWYKMTWVRQAPGKGLEWVSSISPSGGFTSYADSVKGRFTISRDNSKNTLYLQMNSLRAEDTAVYYCARDLDIRHAFDIWGQGTMVTVSS VL: DIQMTQSPGTLSLSPGESGTLSCRASESVSSRHFAWYQQKPGQAPRLLIYGASSRPTGIPDRFSGSGSGTDFTLTLSRLEPEDFAVYFCQYYGSSPYTFGGGTKVEMK when you can.
1.06

Dear colleague, please send me the reported IC50 IL-6 for human anti-HMG1 antibody G4 (antibody, IgG1, V domains shown, full length IgG1 made from a human Fab phage clone; also called ATCC PTA-6258) VH: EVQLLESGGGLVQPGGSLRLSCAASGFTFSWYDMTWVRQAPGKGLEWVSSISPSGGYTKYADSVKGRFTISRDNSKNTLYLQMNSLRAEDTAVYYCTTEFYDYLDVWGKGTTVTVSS VL: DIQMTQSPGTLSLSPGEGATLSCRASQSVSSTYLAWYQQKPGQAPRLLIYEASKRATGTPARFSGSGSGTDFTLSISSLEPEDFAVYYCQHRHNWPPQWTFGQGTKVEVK when you can.
0.9

Dear colleague, please send me the reported IC50 IL-6 for human anti-HMG1 antibody S10 (antibody, IgG1, V domains shown, full length IgG1 made from a human Fab phage clone) VH: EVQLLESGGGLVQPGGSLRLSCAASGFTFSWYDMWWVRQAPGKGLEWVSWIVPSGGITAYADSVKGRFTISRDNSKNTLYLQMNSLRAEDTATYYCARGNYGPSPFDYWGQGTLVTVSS VL: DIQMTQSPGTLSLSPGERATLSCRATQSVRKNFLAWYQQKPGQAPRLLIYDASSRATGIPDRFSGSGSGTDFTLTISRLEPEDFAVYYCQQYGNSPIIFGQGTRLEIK when you can.
0.324
